Tested on: Caki-1 cells
Test method notes: LDH cytotoxicity assay
Assay type: cell-based, human
Condition summary: Caki-1, 10 μM, 1 day, first batch
Parameter measured: cytotoxicity (LDH assay)

# Compound, cytotoxicity (LDH assay)
records = [
    ("Cc1ccc(Nc2ncc(C)c(Nc3cccc(S(=O)(=O)NC(C)(C)C)c3)n2)cc1S(N)(=O)=O [Compound M66]", "exhibited cytotoxicity"),
    ("Cc1cnc(Nc2ccc(C(=O)Nc3cccc(S(=O)(=O)NC(C)(C)C)c3)cc2)nc1Nc1cccc(S(=O)(=O)NC(C)(C)C)c1 [Compound M101D]", "highest cytotoxicity"),
    ("Cc1cnc(Nc2ccc(C(=O)Nc3cccc(S(=O)(=O)N4CCOCC4)c3)cc2)nc1Nc1cccc(S(=O)(=O)NC(C)(C)C)c1 [Compound M101F]", "exhibited cytotoxicity"),
    ("Cc1cnc(Nc2ccc(C(=O)Nc3cccc(Br)c3)cc2)nc1Nc1cccc(S(=O)(=O)NC(C)(C)C)c1 [Compound M101B]", "exhibited cytotoxicity"),
    ("COc1cc(NC(=O)c2ccc(Nc3ncc(C)c(Nc4cccc(S(=O)(=O)NC(C)(C)C)c4)n3)cc2)cc(OC)c1 [Compound M101A]", "exhibited cytotoxicity"),
]

Kindly review the next compound as well.
stdin: What does the data say about its cytotoxicity (LDH assay)? Entry: Cc1cnc(Nc2ccc(N3CCN(C)CC3)cc2)nc1Nc1cccc(S(=O)(=O)NC2CCC2)c1 [Compound M5]
stdout: highest cytotoxicity

====

System: Caki-1 cells
Test method notes: LDH cytotoxicity assay
Format: cell-based, human
Condition summary: top five, LDH assay, 10 μM, 1 day; rank 1 = highest
Cut-off 3 on Ranking, Cytotoxicity (%), inclusive. At or above means met; below means not met.

stdin: Textbook exercise: given the entry Cc1ccc(Nc2ncc(C)c(Nc3cccc(S(=O)(=O)NC(C)(C)C)c3)n2)cc1S(N)(=O)=O [Compound M66] , state whether its Ranking, Cytotoxicity (%) is greater than or equal to 3.
stdout: met

====

Tested on: Caki-1 cells
Test method notes: LDH cytotoxicity assay
Type: cell-based, human
Condition summary: top five, LDH assay, 10 μM, 1 day; rank 1 = highest
Method: Cell culture 2: Caki-1 was purchased from CLS Cell Lines Service (Germany). The cells were maintained in McCoy's 5A (modified) medium (16600082, Thermo Fisher Scientific, USA) and supplemented with 10% fetal bovine serum (FBS, F7524, Sigma-Aldrich), 1% Penicillin/Streptomycin (P4333, Sigma-Aldrich). Lactate dehydrogenase (LDH) assay was performed with LDH Assay Kit (ab65393). […] 20 μl of media was analysed with LDH Assay Kit as per manufacturer's instruction.
# maps each entry to its Ranking, Cytotoxicity (%)
Answer field: number only, no words.

# Compound, Parameter measured, Test value
records = [
    ("Cc1cnc(Nc2ccc(C(=O)Nc3cccc(S(=O)(=O)NC(C)(C)C)c3)cc2)nc1Nc1cccc(S(=O)(=O)NC(C)(C)C)c1 [Compound M101D]", "Ranking, Cytotoxicity (%)", 1),
    ("Cc1cnc(Nc2ccc(N3CCN(C)CC3)cc2)nc1Nc1cccc(S(=O)(=O)NC2CCC2)c1 [Compound M5]", "Ranking, Cytotoxicity (%)", 2),
    ("Cc1cnc(Nc2ccc(C(=O)Nc3cccc(Br)c3)cc2)nc1Nc1cccc(S(=O)(=O)NC(C)(C)C)c1 [Compound M101B]", "Ranking, Cytotoxicity (%)", 3),
]

Kindly review the next compound as well.
stdin: What does the data say about its Ranking, Cytotoxicity (%)? Entry: COc1cc(NC(=O)c2ccc(Nc3ncc(C)c(Nc4cccc(S(=O)(=O)NC(C)(C)C)c4)n3)cc2)cc(OC)c1 [Compound M101A]
stdout: 5

These entries and their values trace back to patent US20260248788A1.
